Hey, just so you know, these numbers are from patent US9328075B2.

Assayed System: IRdRp (PB2, PB1, PA and NP from the strain A/Vietnam/1203/04 (H1N1)) (Influenza A virus, UniProt Q5EP34)
Protocol Text: cell-based
Parameters: species or system influenza A/Vietnam/1203/04 (H1N1)
pIC50: −log10 of the molar value.
Kindly return yes (1) if reported pIC50 is no lower than 5; return no (0) if it is lower.

Asked: State whether the measured pIC50 reaches 5, counting equality as reaching it, for CC(CNC(=O)c1nc(-c2ccccn2)nc(O)c1O)c1ccccc1 (stereo not shown)
Given back: no (0)

Asked: State whether the measured pIC50 reaches 5, counting equality as reaching it, for CC(C)(C)c1cccc(NC(=O)c2nc(-c3ccccn3)nc(O)c2O)c1
Given back: yes (1)

Asked: State whether the measured pIC50 reaches 5, counting equality as reaching it, for Cc1cccc(NC(=O)c2nc(-c3ccccn3)nc(O)c2O)c1
Given back: no (0)

Asked: State whether the measured pIC50 reaches 5, counting equality as reaching it, for O=C(NC1CCCc2ccccc21)c1nc(-c2ccccn2)[nH]c(=O)c1O (stereo not shown)
Given back: yes (1)

Asked: State whether the measured pIC50 reaches 5, counting equality as reaching it, for CC1CCC(NC(=O)c2nc(-c3ccccn3)[nH]c(=O)c2O)CC1 (stereo not shown)
Given back: yes (1)

###

Protocol Text: in vitro
Details: human
# key: entry, value: CC50 at 72 h

The value of CC50 at 72 h measured for the compound CCCCC(CC)CNC(=O)c1nc(-c2ccccn2)nc(O)c1O (stereo not shown) turned out to be < 25 µM

###

Assayed System: IRdRp (PB2, PB1, PA and NP from the strain A/Vietnam/1203/04 (H1N1)) (Influenza A virus, UniProt Q5EP34)
Protocol Text: cell-based
# key: entry, value: pIC50
pIC50 is defined as minus the log10 of a concentration measured in mol/L.

The value of pIC50 measured for the molecule Cc1ccccc1NC(=O)c1nc(-c2ccccn2)nc(O)c1O turned out to be 5.05

The value of pIC50 measured for the molecule O=C(NCc1cccc2ccccc12)c1nc(-c2ccccn2)[nH]c(=O)c1O turned out to be 5.04

The value of pIC50 measured for the molecule COc1ccc(NC(=O)c2nc(-c3ccccn3)nc(O)c2O)c(C)c1 turned out to be 5.00

The value of pIC50 measured for the molecule CC(C)(C)CCNC(=O)c1nc(-c2ccccn2)nc(O)c1O turned out to be 5.00

The value of pIC50 measured for the molecule CC1CCCCC1NC(=O)c1nc(-c2ccccn2)nc(O)c1O (centres unmarked) turned out to be 5.26

Continuing:
The value of pIC50 measured for the molecule CCCCCC(C)NC(=O)c1nc(-c2ccccn2)nc(O)c1O (centres unmarked) turned out to be 4.85

The value of pIC50 measured for the molecule CCCCC(CC)CNC(=O)c1nc(-c2ccccn2)nc(O)c1O (centres unmarked) turned out to be 5.37

The value of pIC50 measured for the molecule CC(C)CC(C)NC(=O)c1nc(-c2ccccn2)nc(O)c1O (centres unmarked) turned out to be 4.89

###

Protocol Text: in vitro
Details: human
Value Type: CC50 at 72 h

The value of CC50 at 72 h measured for the compound CC1CCCCC1NC(=O)c1nc(-c2ccccn2)nc(O)c1O (stereo not drawn) turned out to be < 25 µM

Continuing:
The value of CC50 at 72 h measured for the compound CC(C)CC(C)NC(=O)c1nc(-c2ccccn2)nc(O)c1O (stereo not drawn) turned out to be > 25 µM

The value of CC50 at 72 h measured for the compound CC(C)(C)c1cccc(NC(=O)c2nc(-c3ccccn3)nc(O)c2O)c1 turned out to be < 25 µM

The value of CC50 at 72 h measured for the compound O=C(NCc1cccc2ccccc12)c1nc(-c2ccccn2)[nH]c(=O)c1O turned out to be < 25 µM

The value of CC50 at 72 h measured for the compound CCCCCC(C)NC(=O)c1nc(-c2ccccn2)nc(O)c1O (stereo not drawn) turned out to be < 25 µM

The value of CC50 at 72 h measured for the compound CC(C)(C)CCNC(=O)c1nc(-c2ccccn2)nc(O)c1O turned out to be < 25 µM

The value of CC50 at 72 h measured for the compound Cc1cccc(NC(=O)c2nc(-c3ccccn3)nc(O)c2O)c1 turned out to be < 25 µM

The value of CC50 at 72 h measured for the compound CC1CCC(NC(=O)c2nc(-c3ccccn3)[nH]c(=O)c2O)CC1 (stereo not drawn) turned out to be < 25 µM
